# Tested on: β-hemolytic streptococci (23)
# experiment.notes: MIC broth microdilution, β-hemolytic streptococci
# condition.description: β-hemolytic streptococci
reported.property: fold more potent than teicoplanin and daptomycin

molecule: CCCCCCCCCCNCCNC1(C)CC(OC2C(Oc3c4cc5cc3Oc3ccc(cc3Cl)C(O)C3NC(=O)C(NC(=O)C5NC(=O)C(CC(N)=O)NC(=O)C(NC(=O)C(CC(C)C)NC)C(O)c5ccc(c(Cl)c5)O4)c4ccc(O)c(c4)-c4c(cc(O)c(CNCCOCCOCCN)c4O)C(C(=O)O)NC3=O)OC(CO)C(O)C2O)OC(C)C1O (centres unmarked)
data.value: two- to four
//
molecule: CCCCCCCCCCNCCNC1(C)CC(OC2C(Oc3c4cc5cc3Oc3ccc(cc3Cl)C(O)C3NC(=O)C(NC(=O)C5NC(=O)C(CC(N)=O)NC(=O)C(NC(=O)C(CC(C)C)NC)C(O)c5ccc(c(Cl)c5)O4)c4ccc(O)c(c4)-c4c(cc(O)c(CNCCOCCOCC[N+](C)(C)C)c4O)C(C(=O)O)NC3=O)OC(CO)C(O)C2O)OC(C)C1O (centres unmarked)
data.value: two- to four

====

# Test system: S. pneumoniae (22)
# experiment.notes: MIC broth microdilution, S. pneumoniae
# condition.description: S. pneumoniae (22); MHB + lysed horse blood

compound: CNC(CC(C)C)C(=O)NC1C(=O)NC(CC(N)=O)C(=O)NC2C(=O)NC3C(=O)NC(C(=O)NC(C(=O)O)c4cc(O)c(CNCCOCCOCCOCCN(C)C)c(O)c4-c4cc3ccc4O)C(O)c3ccc(c(Cl)c3)Oc3cc2cc(c3OC2OC(CO)C(O)C(O)C2OC2CC(C)(NCc3ccc(-c4ccc(Cl)cc4)cc3)C(O)C(C)O2)Oc2ccc(cc2Cl)C1O (stereo not drawn)
result.units: µg/mL
MIC 90%: 0.12
--
compound: CNC(CC(C)C)C(=O)NC1C(=O)NC(CC(N)=O)C(=O)NC2C(=O)NC3C(=O)NC(C(=O)NC(C(=O)NCCOCCOCCN)c4cc(O)cc(O)c4-c4cc3ccc4O)C(O)c3ccc(c(Cl)c3)Oc3cc2cc(c3OC2OC(CO)C(O)C(O)C2OC2CC(C)(NCc3ccc(-c4ccc(Cl)cc4)cc3)C(O)C(C)O2)Oc2ccc(cc2Cl)C1O (stereo not drawn)
result.units: µg/mL
MIC 90%: 0.06
--
compound: CNC(CC(C)C)C(=O)NC1C(=O)NC(CC(N)=O)C(=O)NC2C(=O)NC3C(=O)NC(C(=O)NC(C(=O)NCCOCCOCCN(C)C)c4cc(O)cc(O)c4-c4cc3ccc4O)C(O)c3ccc(c(Cl)c3)Oc3cc2cc(c3OC2OC(CO)C(O)C(O)C2OC2CC(C)(NCc3ccc(-c4ccc(Cl)cc4)cc3)C(O)C(C)O2)Oc2ccc(cc2Cl)C1O (stereo not drawn)
result.units: µg/mL
MIC 90%: 0.06

====

# MIC 90% per entry
# System: heterogeneous VISA (hVISA, 10)
# experiment.notes: MIC broth microdilution, hVISA

compound: CNC(CC(C)C)C(=O)NC1C(=O)NC(CC(N)=O)C(=O)NC2C(=O)NC3C(=O)NC(C(=O)NC(C(=O)O)c4cc(O)c(CNCCOCCOCCN)c(O)c4-c4cc3ccc4O)C(O)c3ccc(c(Cl)c3)Oc3cc2cc(c3OC2OC(CO)C(O)C(O)C2OC2CC(C)(NCc3ccc(OCc4ccc(Cl)c(Cl)c4)cc3)C(O)C(C)O2)Oc2ccc(cc2Cl)C1O (stereo not shown)
MIC 90%: 0.06 µg/mL
--
compound: CCCCCCCCCCNCCNC1(C)CC(OC2C(Oc3c4cc5cc3Oc3ccc(cc3Cl)C(O)C3NC(=O)C(NC(=O)C5NC(=O)C(CC(N)=O)NC(=O)C(NC(=O)C(CC(C)C)NC)C(O)c5ccc(c(Cl)c5)O4)c4ccc(O)c(c4)-c4c(O)cc(O)cc4C(C(=O)NCCOCCOCCN)NC3=O)OC(CO)C(O)C2O)OC(C)C1O (stereo not shown)
MIC 90%: 0.12 µg/mL
--
compound: CNC(CC(C)C)C(=O)NC1C(=O)NC(CC(N)=O)C(=O)NC2C(=O)NC3C(=O)NC(C(=O)NC(C(=O)NCCOCCOCCN(C)C)c4cc(O)cc(O)c4-c4cc3ccc4O)C(O)c3ccc(c(Cl)c3)Oc3cc2cc(c3OC2OC(CO)C(O)C(O)C2OC2CC(C)(NCc3ccc(-c4ccc(Cl)cc4)cc3)C(O)C(C)O2)Oc2ccc(cc2Cl)C1O (stereo not shown)
MIC 90%: 0.12 µg/mL
--
compound: CCCCCCCCCCNCCNC1(C)CC(OC2C(Oc3c4cc5cc3Oc3ccc(cc3Cl)C(O)C3NC(=O)C(NC(=O)C5NC(=O)C(CC(N)=O)NC(=O)C(NC(=O)C(CC(C)C)NC)C(O)c5ccc(c(Cl)c5)O4)c4ccc(O)c(c4)-c4c(cc(O)c(CNCCOCCOCC[N+](C)(C)C)c4O)C(C(=O)O)NC3=O)OC(CO)C(O)C2O)OC(C)C1O (stereo not shown)
MIC 90%: 0.06 µg/mL
--
compound: CCCCCCCCCCNCCNC1(C)CC(OC2C(Oc3c4cc5cc3Oc3ccc(cc3Cl)C(O)C3NC(=O)C(NC(=O)C5NC(=O)C(CC(N)=O)NC(=O)C(NC(=O)C(CC(C)C)NC)C(O)c5ccc(c(Cl)c5)O4)c4ccc(O)c(c4)-c4c(cc(O)c(CNCCOCCOCCN)c4O)C(C(=O)O)NC3=O)OC(CO)C(O)C2O)OC(C)C1O (stereo not shown)
MIC 90%: 0.06 µg/mL
--
compound: CNC(CC(C)C)C(=O)NC1C(=O)NC(CC(N)=O)C(=O)NC2C(=O)NC3C(=O)NC(C(=O)NC(C(=O)O)c4cc(O)c(CNCCOCCOCCOCCN(C)C)c(O)c4-c4cc3ccc4O)C(O)c3ccc(c(Cl)c3)Oc3cc2cc(c3OC2OC(CO)C(O)C(O)C2OC2CC(C)(NCc3ccc(-c4ccc(Cl)cc4)cc3)C(O)C(C)O2)Oc2ccc(cc2Cl)C1O (stereo not shown)
MIC 90%: 0.12 µg/mL
--
compound: CNC(CC(C)C)C(=O)NC1C(=O)NC(CC(N)=O)C(=O)NC2C(=O)NC3C(=O)NC(C(=O)NC(C(=O)NCCOCCOCCN)c4cc(O)cc(O)c4-c4cc3ccc4O)C(O)c3ccc(c(Cl)c3)Oc3cc2cc(c3OC2OC(CO)C(O)C(O)C2OC2CC(C)(NCc3ccc(-c4ccc(Cl)cc4)cc3)C(O)C(C)O2)Oc2ccc(cc2Cl)C1O (stereo not shown)
MIC 90%: 0.12 µg/mL

====

# Test system: methicillin-susceptible S. aureus (MSSA, 22)
# experiment.notes: MIC broth microdilution, MSSA
# condition.description: MSSA (22)

molecule: CNC(CC(C)C)C(=O)NC1C(=O)NC(CC(N)=O)C(=O)NC2C(=O)NC3C(=O)NC(C(=O)NC(C(=O)O)c4cc(O)c(CNCCOCCOCCN(C)C)c(O)c4-c4cc3ccc4O)C(O)c3ccc(c(Cl)c3)Oc3cc2cc(c3OC2OC(CO)C(O)C(O)C2OC2CC(C)(NCc3ccc(-c4ccc(Cl)cc4)cc3)C(O)C(C)O2)Oc2ccc(cc2Cl)C1O (centres unmarked) [Compound 12]
result.units: µg/mL
MIC 90%: 0.12
//
molecule: CNC(CC(C)C)C(=O)NC1C(=O)NC(CC(N)=O)C(=O)NC2C(=O)NC3C(=O)NC(C(=O)NC(C(=O)NCCOCCOCCN)c4cc(O)cc(O)c4-c4cc3ccc4O)C(O)c3ccc(c(Cl)c3)Oc3cc2cc(c3OC2OC(CO)C(O)C(O)C2OC2CC(C)(NCc3ccc(-c4ccc(Cl)cc4)cc3)C(O)C(C)O2)Oc2ccc(cc2Cl)C1O (centres unmarked) [Compound 9]
result.units: µg/mL
MIC 90%: 0.12
//
molecule: CNC(CC(C)C)C(=O)NC1C(=O)NC(CC(N)=O)C(=O)NC2C(=O)NC3C(=O)NC(C(=O)NC(C(=O)O)c4cc(O)c(CNCCOCCOCC[N+](C)(C)C)c(O)c4-c4cc3ccc4O)C(O)c3ccc(c(Cl)c3)Oc3cc2cc(c3OC2OC(CO)C(O)C(O)C2OC2CC(C)(NCc3ccc(-c4ccc(Cl)cc4)cc3)C(O)C(C)O2)Oc2ccc(cc2Cl)C1O (centres unmarked) [Compound 13]
result.units: µg/mL
MIC 90%: 0.25
//
molecule: CNC(CC(C)C)C(=O)NC1C(=O)NC(CC(N)=O)C(=O)NC2C(=O)NC3C(=O)NC(C(=O)NC(C(=O)O)c4cc(O)c(CNCCOCCOCC[N+](C)(C)C)c(O)c4-c4cc3ccc4O)C(O)c3ccc(c(Cl)c3)Oc3cc2cc(c3OC2OC(CO)C(O)C(O)C2OC2CC(C)(NCc3ccc(OCc4ccc(Cl)c(Cl)c4)cc3)C(O)C(C)O2)Oc2ccc(cc2Cl)C1O (centres unmarked) [Compound 29]
result.units: µg/mL
MIC 90%: 0.12
//
molecule: CNC(CC(C)C)C(=O)NC1C(=O)NC(CC(N)=O)C(=O)NC2C(=O)NC3C(=O)NC(C(=O)NC(C(=O)O)c4cc(O)c(CNCCOCCOCCN)c(O)c4-c4cc3ccc4O)C(O)c3ccc(c(Cl)c3)Oc3cc2cc(c3OC2OC(CO)C(O)C(O)C2OC2CC(C)(NCc3ccc(-c4ccc(Cl)cc4)cc3)C(O)C(C)O2)Oc2ccc(cc2Cl)C1O (centres unmarked) [Compound 11]
result.units: µg/mL
MIC 90%: 0.12
